The measurements presented in this section are drawn from paper PMC10906247.

Test: Metabolic stability / intrinsic clearance in cryopreserved human hepatocytes
Details: human, hepatocytes
measurement.type: hepatocyte CLint at 1 µM (µL/min/1e6 cells)
Hi! Could you send only the number? It should be in µL/min/1e6 cells, unit omitted.

What does the record list as hepatocyte CLint at 1 µM for CCN(CC)CCN1C(=O)CN=C(c2ccccc2F)c2cc(Cl)ccc21 [Flurazepam, reference compound] ?
19.3

###

Biological target: GPR40 (FFAR1) (Homo sapiens)
Sequence (O14842 whole entry): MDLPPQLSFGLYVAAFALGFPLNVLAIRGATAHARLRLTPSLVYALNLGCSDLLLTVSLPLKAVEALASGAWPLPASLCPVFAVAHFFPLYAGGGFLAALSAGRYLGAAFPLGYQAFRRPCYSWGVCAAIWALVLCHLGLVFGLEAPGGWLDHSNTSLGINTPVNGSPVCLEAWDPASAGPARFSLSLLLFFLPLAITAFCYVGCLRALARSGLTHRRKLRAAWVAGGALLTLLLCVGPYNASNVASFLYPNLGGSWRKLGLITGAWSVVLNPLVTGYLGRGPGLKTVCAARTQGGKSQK
Assay: PathHunter β-arrestin assay (Eurofins Discovery), GPR40
Type: cell-based
Conditions: dose-response, β-arrestin assay; read-out: GPR40 EC50 measured
measurement.type: EC50 (µM)
Hi! Could you send only the number? It should be in µM, unit omitted.

- compound: "CCCCCCCCC[C@H](C)/C=C(/C)C/C(C)=C/[C@H](C)CC(=O)O"
  EC50 / µM: 2.6
- compound: "CCCCCCCCC[C@@H](C)/C=C(/C)C/C(C)=C/[C@H](C)CC(=O)O"
  EC50 / µM: 7.8
- compound: "O=C(O)CCc1ccc(NCc2cccc(Oc3ccccc3)c2)cc1 [GW9508, reference compound]"
  EC50 / µM: 1

What does the record list as EC50 for CCCCCCCCC[C@H](C)/C=C(/C)C/C(C)=C/[C@@H](C)CC(=O)O ?
7.2
